assay-system: Serine/threonine-protein kinase 10 (Homo sapiens) (UniProt O94804)
Sequence (O94804 whole entry, looked up): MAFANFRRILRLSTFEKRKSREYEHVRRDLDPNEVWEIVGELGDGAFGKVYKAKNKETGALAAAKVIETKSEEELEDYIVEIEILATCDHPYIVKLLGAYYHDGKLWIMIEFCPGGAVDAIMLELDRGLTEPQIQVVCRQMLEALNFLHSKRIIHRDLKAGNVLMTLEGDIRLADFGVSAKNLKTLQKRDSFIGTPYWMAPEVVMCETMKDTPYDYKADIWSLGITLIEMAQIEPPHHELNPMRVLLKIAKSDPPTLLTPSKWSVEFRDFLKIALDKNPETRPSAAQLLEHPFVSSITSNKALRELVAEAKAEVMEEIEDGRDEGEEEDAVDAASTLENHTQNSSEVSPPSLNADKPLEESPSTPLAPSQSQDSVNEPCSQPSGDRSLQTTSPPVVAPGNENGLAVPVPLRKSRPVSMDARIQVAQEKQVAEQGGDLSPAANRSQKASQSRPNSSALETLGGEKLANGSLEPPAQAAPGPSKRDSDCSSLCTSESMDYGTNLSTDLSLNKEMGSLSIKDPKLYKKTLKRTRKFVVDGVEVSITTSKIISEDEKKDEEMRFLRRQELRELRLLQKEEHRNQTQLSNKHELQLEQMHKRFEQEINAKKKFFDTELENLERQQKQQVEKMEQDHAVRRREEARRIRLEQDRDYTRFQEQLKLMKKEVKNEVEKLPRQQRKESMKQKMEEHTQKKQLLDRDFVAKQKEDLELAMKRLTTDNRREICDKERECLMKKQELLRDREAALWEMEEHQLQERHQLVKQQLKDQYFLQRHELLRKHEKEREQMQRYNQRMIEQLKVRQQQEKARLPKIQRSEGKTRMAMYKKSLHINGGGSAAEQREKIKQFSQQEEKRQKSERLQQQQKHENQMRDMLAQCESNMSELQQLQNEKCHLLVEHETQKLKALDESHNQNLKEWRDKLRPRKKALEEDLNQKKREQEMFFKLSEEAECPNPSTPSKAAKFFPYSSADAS
protocol-conditions: at 10 µM
outcome-measure: residual activity

Memo: CNc1cc2c(Nc3cccc(Br)c3)ncnc2cn1 , reported residual activity: 10%

Field residual activity (entry CCOc1cc2ncnc(Nc3cccc(Br)c3)c2cc1OCC ) reads 10%

Please fill in: residual activity reported for Cc1cc2ncc(-c3ccccc3)nc2cc1C = 93%

// batch mode: one residual activity value per listed entry
1. COc1ccc(C(=O)Nc2sc3c(c2C(N)=O)CCCC3)cc1OC
2. Nc1cccc(-c2cc3c(Oc4cccc(O)c4)ncnc3[nH]2)c1

RESULT:
["87%", "9%"]
